- EXPERIMENTAL TARGET: Alpha amylase (Homo sapiens) (UniProt P0DUB6)
- Sequence (P0DUB6 whole entry, looked up): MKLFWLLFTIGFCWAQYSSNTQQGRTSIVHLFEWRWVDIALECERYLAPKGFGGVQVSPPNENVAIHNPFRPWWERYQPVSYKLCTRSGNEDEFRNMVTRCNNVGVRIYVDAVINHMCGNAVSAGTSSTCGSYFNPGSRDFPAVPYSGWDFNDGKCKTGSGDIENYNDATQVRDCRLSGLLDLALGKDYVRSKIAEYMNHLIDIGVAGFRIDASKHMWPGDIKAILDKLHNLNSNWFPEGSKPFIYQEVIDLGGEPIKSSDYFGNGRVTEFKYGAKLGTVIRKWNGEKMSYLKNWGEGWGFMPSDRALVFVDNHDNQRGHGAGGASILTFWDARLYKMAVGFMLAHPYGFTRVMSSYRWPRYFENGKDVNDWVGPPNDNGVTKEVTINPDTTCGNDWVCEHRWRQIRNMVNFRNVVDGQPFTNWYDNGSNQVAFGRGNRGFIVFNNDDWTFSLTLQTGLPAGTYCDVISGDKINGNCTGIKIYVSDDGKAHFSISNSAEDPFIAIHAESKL
- EXPERIMENT NOTES: Inhibition of human alpha-amylase at 100 ug/ml using starch as substrate preincubated for 30 mins by 3,5-dinitrosalicylic acid color reagent based assay relative to control
EXPERIMENTAL READOUT: inhibition
Be sure to follow the number with its unit.

For orientation, consider the following solved cases.
[[record]]
compound = "C[C@H]1O[C@H](O[C@H]2[C@H](O)[C@@H](O)[C@@H](O[C@H]3[C@H](O)[C@@H](O)C(O)O[C@@H]3CO)O[C@@H]2CO)[C@H](O)[C@@H](O)[C@@H]1N[C@H]1C=C(CO)[C@@H](O)[C@H](O)[C@H]1O (stereo partly drawn)"
experimental_target = "Alpha amylase (Homo sapiens) (UniProt P0DUB6)"
test_result = "53.8%"

[[record]]
compound = "Cc1ccc(/N=C2/NC(=O)/C(=C/c3cn(-c4ccccc4)nc3-c3ccc([N+](=O)[O-])cc3)S2)cc1"
experimental_target = "Alpha amylase (Homo sapiens) (UniProt P0DUB6)"
test_result = "88.2%"


Measured inhibition (Alpha amylase (Homo sapiens) (UniProt P0DUB6)), entry Cc1ccc(/N=C2/NC(=O)/C(=C/c3cn(-c4ccccc4)nc3-c3ccc(F)cc3)S2)cc1 : 81.6%
